# phosphorylation enrichment values compiled below
target: Fes (UniProt P07332); experiment: phosphorylation enrichment, bacterial display (enrichment ratio); higher = better substrate or ligand; peptides without Tyr show the background;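 further: 11-residue human phosphosite peptides and single-mutation variants displayed on the E. coli surface, counted by deep sequencing, each peptide's frequency after selection divided by its frequency in the unselected input library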;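 further: frequency after pTyr selection over input frequency; kinase dosed for 20-30% of maximal phosphorylation in three min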
Sequence (P07332 whole entry, looked up): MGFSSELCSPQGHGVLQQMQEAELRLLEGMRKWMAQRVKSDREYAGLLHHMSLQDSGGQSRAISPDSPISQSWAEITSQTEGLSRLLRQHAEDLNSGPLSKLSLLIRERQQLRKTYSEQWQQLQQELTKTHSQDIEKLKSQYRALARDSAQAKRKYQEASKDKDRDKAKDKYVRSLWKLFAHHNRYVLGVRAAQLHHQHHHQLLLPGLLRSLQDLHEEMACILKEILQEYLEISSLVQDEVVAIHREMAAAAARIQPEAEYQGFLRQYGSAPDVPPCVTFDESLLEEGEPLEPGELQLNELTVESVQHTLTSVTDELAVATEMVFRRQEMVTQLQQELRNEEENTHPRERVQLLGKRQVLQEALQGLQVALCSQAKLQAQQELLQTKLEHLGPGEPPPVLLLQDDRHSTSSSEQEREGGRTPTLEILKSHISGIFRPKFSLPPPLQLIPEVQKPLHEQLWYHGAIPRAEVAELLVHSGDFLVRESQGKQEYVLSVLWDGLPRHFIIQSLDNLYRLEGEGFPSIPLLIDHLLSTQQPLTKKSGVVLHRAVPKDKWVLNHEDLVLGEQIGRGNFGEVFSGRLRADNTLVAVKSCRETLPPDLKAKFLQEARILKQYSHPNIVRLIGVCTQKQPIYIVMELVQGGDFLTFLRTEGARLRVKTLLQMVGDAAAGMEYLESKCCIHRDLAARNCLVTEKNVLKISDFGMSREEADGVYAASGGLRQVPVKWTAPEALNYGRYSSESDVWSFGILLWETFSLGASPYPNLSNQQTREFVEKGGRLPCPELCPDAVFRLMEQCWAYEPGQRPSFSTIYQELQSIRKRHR
Assay readout: phosphorylation enrichment

[
  {
    "Macromolecule sequence": "YQCKHYACIRQ [TIMP3_Y182_S179C]",
    "Measurement": 0.662
  },
  {
    "Macromolecule sequence": "EEGNPSFSSAR [MCCC2_Y520_Y520S_YF]",
    "Measurement": 0.876
  },
  {
    "Macromolecule sequence": "LNPDGYEKAYE [CPXM2_Y427]",
    "Measurement": 1.53
  },
  {
    "Macromolecule sequence": "EREFKYGAHNF [OAT_Y50_YF]",
    "Measurement": 0.608
  },
  {
    "Macromolecule sequence": "VNTTLYEKFTY [TEK_Y1108]",
    "Measurement": 0.879
  },
  {
    "Macromolecule sequence": "CTNIHYNFMCN [TP53_Y234_T231N_YF]",
    "Measurement": 0.974
  },
  {
    "Macromolecule sequence": "LITTLYIGFLD [KCNQ1_Y267_G272D]",
    "Measurement": 3.12
  }
]
